Numbers sourced from patent US9512111B2.

- Assayed System: RORγ-LBD (Homo sapiens, UniProt P51449)
- Construct: HIS-tagged RORγ-LBD was recombinantly expressed in SF9 cells; made in house; host or cells: SF9 cells (baculovirus); unpurified lysate
- Sequence (P51449 269-508 limits assumed): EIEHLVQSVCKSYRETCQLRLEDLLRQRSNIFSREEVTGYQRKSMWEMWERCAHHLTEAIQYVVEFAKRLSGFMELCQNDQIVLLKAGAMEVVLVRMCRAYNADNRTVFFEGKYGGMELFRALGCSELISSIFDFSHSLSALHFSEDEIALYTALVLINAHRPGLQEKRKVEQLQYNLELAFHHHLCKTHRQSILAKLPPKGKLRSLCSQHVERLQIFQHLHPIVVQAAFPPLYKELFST
- Procedure Details: RORγ-Ligand Binding Domain TR-FRET Assay
- Type: biochemical
- Test Parameters: Table 8, indazoles
pIC50: −log10 of the molar value.
Parameter: pIC50

Please report the recorded pIC50 for O=C(Nc1ccc2cnn(S(=O)(=O)c3ccc(F)cc3)c2c1)c1c(F)cccc1Cl . > 4.82

Value lookup for pIC50; key = COc1cccc(S(=O)(=O)n2ncc3ccc(NC(=O)Cc4cnc(C)s4)cc32)c1 > 4.82

Tell me the measured pIC50 of COc1ccc(C)cc1S(=O)(=O)n1ncc2ccc(NC(=O)c3c(F)cccc3Cl)cc21 , please. > 4.82

What does the data say about its pIC50? Entry: O=C(Nc1ccc2cnn(S(=O)(=O)Cc3cc(C(F)(F)F)cc(C(F)(F)F)c3)c2c1)c1c(F)cccc1Cl > 4.82
